Test system: Streptococcus faecalis (Group D)
Assay: MIC on mass basis (Example V procedure)
Format: cell-based
Conditions: Enterococcus faecalis, Table 12, Streptococcus faecalis (Group D); read-out: MIC
Listed next: entries and their corresponding MIC.
endpointLabel: MIC

[[record]]
querysmiles = "CCCCCCCCCCc1cc(C(C)(C)C)c(O)c(C(C)(C)C)c1"
assayresult = "> 5000 µg/mL"

[[record]]
querysmiles = "CCCCCCc1cc(C(C)(C)C)c(O)c(C(C)(C)C)c1"
assayresult = "> 5000 µg/mL"

[[record]]
querysmiles = "CCCCc1cc(C(C)(C)C)c(O)c(C(C)(C)C)c1"
assayresult = "> 5000 µg/mL"

[[record]]
querysmiles = "CCCCCCCCc1cc(C(C)(C)C)c(O)c(C(C)(C)C)c1"
assayresult = "> 5000 µg/mL"

[[record]]
querysmiles = "CCc1cc(C(C)(C)C)c(O)c(C(C)(C)C)c1"
assayresult = "2500 µg/mL"

[[record]]
querysmiles = "Cc1cc(C(C)(C)C)c(O)c(C(C)(C)C)c1"
assayresult = "> 5000 µg/mL"

